From: patent US20220298163A1

# targetOrSystem: EGFR (Homo sapiens)
# Sequence (P00533 25-1210): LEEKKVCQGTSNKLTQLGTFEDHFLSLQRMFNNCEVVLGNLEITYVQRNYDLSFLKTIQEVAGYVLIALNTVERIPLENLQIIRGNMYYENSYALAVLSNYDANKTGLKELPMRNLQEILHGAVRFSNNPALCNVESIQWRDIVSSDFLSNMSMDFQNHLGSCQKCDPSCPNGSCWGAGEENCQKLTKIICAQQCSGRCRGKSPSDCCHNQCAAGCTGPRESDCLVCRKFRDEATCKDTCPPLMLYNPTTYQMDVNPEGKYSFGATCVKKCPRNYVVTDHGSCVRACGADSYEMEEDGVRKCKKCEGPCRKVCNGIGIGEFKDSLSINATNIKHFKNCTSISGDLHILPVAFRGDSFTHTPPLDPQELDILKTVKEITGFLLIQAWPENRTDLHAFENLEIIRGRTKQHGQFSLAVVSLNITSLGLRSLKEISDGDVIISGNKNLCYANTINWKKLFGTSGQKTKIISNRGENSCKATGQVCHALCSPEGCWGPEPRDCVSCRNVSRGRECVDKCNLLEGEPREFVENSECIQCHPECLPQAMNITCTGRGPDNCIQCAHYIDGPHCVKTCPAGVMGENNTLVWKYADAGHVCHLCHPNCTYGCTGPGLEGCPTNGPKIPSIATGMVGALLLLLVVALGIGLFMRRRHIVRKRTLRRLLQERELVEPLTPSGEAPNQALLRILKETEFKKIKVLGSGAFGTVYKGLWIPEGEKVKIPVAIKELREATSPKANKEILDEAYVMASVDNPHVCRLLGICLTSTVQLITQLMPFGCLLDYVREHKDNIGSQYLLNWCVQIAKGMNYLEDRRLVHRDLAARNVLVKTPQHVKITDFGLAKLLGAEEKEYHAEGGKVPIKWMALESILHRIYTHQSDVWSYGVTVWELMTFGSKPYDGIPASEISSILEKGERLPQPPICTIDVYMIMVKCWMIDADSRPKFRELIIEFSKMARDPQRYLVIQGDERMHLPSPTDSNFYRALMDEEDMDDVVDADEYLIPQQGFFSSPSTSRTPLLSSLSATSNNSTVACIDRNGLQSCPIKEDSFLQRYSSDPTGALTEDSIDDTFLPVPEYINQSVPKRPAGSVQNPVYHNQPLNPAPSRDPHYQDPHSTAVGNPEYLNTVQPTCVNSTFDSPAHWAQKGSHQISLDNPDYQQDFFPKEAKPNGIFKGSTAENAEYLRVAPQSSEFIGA
# assay: Biochemical kinase selectivity: IC50 determination of EGFR
# measurementConditions: ratio of IC50 values
propertyMeasured: Fold of EGFR/Btk (fold)

Known Fold of EGFR/Btk results, listed for orientation:
>>> reportedvalue("C=CC(=O)N1CCC(C2CCNc3c(C(N)=O)c(-c4cc(OC)c(C5CC5)c(OCC)c4)nn32)CC1 (centres unmarked)")
3479
>>> reportedvalue("C=CC(=O)N1CCC(C2CCNc3c(C(N)=O)c(-c4cc(Br)c(C)c(Br)c4)nn32)CC1 (centres unmarked)")
333
>>> reportedvalue("C=CC(=O)Nc1ccccc1C1CCNc2c(C(N)=O)c(-c3cc(F)c(F)c(Cl)c3)nn21 (centres unmarked) [Example 158, reference compound]")
0.2

P. C=CC(=O)N1CCC(C2CCNc3c(C(N)=O)c(-c4cc(Cl)c(C)c(OC)c4)nn32)CC1 (centres unmarked)
Q. C=CC(=O)N1CCC(C2CCNc3c(C(N)=O)c(-c4cc(OC)c(C(=C)c5ccccc5)c(OC)c4)nn32)CC1 (centres unmarked)
Could you kindly indicate whether P or Q has the higher Fold of EGFR/Btk value? Mark your answer with the label of the selected entry.
Q
(Q: 909 fold, P: 500 fold)

* * *

# targetOrSystem: EGFR (Homo sapiens)
# assay: Biochemical kinase selectivity: IC50 determination of EGFR
# measurementConditions: ratio of IC50 values
propertyMeasured: Fold of EGFR/Btk (fold)

P. C=CC(=O)N1CC2CNc3c(C(N)=O)c(-c4cc(OC)c(C)c(OC)c4)nn3C2C1 (centres unmarked)
Q. C=CC(=O)N1CCC(C2CCNc3c(C(N)=O)c(-c4cc(OC)c(C5CCCCC5)c(OC)c4)nn32)CC1 (centres unmarked)
Could you kindly indicate whether P or Q has the higher Fold of EGFR/Btk value? Mark your answer with the label of the selected entry.
Q

* * *

# targetOrSystem: Tec (Homo sapiens, UniProt P42680)
# Sequence (P42680 whole entry): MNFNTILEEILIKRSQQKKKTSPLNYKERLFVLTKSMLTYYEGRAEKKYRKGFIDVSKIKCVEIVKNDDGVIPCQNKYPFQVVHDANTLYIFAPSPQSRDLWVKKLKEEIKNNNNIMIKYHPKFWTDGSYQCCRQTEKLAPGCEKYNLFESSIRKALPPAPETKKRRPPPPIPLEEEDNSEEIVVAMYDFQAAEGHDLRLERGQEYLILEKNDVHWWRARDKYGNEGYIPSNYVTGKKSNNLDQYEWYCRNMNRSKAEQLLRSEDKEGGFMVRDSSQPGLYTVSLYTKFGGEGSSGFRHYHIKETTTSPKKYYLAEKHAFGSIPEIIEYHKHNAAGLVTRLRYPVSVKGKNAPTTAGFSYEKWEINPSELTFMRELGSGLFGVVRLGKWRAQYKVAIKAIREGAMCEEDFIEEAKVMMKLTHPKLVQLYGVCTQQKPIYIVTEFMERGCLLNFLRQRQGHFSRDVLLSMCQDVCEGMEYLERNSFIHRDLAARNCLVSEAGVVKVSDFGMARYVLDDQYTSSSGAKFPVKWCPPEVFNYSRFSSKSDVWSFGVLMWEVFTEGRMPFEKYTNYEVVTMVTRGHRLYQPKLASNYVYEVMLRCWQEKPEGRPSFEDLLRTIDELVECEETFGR
# assay: Biochemical kinase selectivity: IC50 determination of Tec
# measurementConditions: TR-FRET, 280 μM ATP
propertyMeasured: IC50 (nM)

Known IC50 results, listed for orientation:
>>> reportedvalue("C=CC(=O)N1CCC(C2CCNc3c(C(N)=O)c(-c4cc(OC)c(/C=C/c5ccccc5)c(OC)c4)nn32)CC1 (centres unmarked) [Example A41]")
101
>>> reportedvalue("C=CC(=O)N1CCC(C2CCNc3c(C(N)=O)c(-c4cc(Cl)c(C)c(Cl)c4)nn32)CC1 (centres unmarked) [Example A7]")
254

1. C=CC(=O)N1CCC(C2CCNc3c(C(N)=O)c(-c4cc(OC)c(C)c(OCC)c4)nn32)CC1 (centres unmarked) [Example A12]
2. C=CC(=O)N1CCC(C2CCNc3c(C(N)=O)c(-c4cc(OC)c(C(=C)c5ccccc5)c(OC)c4)nn32)CC1 (centres unmarked) [Example A43]
3. C=CC(=O)Nc1ccccc1C1CCNc2c(C(N)=O)c(-c3cc(OC)c(OC)c(OC)c3)nn21 (centres unmarked) [167^#]
Order the records, beginning with the lowest IC50 and ending with the highest. In your reply, arrange the labels in the requested order.
2, 3, 1
(2: 39 nM, 3: 157 nM, 1: 289 nM)

* * *

# targetOrSystem: Btk kinase (aa2-659, Carna Biosciences) (Homo sapiens)
# Construct: purchased Carna Biosciences
# Sequence (Q06187 2-659): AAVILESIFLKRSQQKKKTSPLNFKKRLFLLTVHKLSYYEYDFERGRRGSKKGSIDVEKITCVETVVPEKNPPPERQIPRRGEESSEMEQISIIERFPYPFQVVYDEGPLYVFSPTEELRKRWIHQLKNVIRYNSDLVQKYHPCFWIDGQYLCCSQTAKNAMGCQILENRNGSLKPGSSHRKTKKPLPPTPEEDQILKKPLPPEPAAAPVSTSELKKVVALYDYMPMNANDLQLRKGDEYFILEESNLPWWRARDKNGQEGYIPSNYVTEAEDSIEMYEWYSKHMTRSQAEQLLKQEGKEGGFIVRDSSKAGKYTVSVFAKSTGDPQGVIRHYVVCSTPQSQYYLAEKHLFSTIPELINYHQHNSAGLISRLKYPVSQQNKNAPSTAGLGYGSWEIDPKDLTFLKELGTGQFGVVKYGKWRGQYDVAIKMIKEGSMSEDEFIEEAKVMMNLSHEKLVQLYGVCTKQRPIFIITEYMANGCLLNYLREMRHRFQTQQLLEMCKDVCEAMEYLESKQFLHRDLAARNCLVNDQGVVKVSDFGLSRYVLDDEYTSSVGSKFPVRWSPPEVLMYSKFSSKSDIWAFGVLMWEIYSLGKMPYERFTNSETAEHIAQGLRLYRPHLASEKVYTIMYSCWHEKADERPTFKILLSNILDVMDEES
# assay: Btk kinase enzymatic assay (TR-FRET)
# Type: biochemical
# measurementConditions: TR-FRET, 30 μM ATP, compound incubated with kinase 60 minutes
propertyMeasured: IC50 (nM)

Known IC50 results, listed for orientation:
>>> reportedvalue("C=CC(=O)N1CCC(C2CCNc3c(C(N)=O)c(-c4cc(Cl)c(C5CC5)c(OCC)c4)nn32)CC1 (stereo not drawn)")
16
>>> reportedvalue("C=CC(=O)NCC1CCNc2c(C(N)=O)c(-c3cc(OC)c(C)c(OC)c3)nn21 (stereo not drawn) [Example E1]")
33
>>> reportedvalue("C=CC(=O)N1CCC(C2CCNc3c(C(N)=O)c(-c4cc(OC)cc(OC)c4)nn32)CC1 (stereo not drawn)")
41
>>> reportedvalue("C=CC(=O)N1CCC(C2CCNc3c(C(N)=O)c(-c4cc(C)c(C)c(OC)c4)nn32)CC1 (stereo not drawn)")
1.8
>>> reportedvalue("C=CC(=O)N1CCC(C2CCNc3c(C(N)=O)c(-c4cc(OC)c(C(C)O)c(OC)c4)nn32)CC1 (stereo not drawn)")
5.9

I. C=CC(=O)N1CCC(C2CCNc3c(C(N)=O)c(-c4cc(OC)c(C(C)c5ccccc5)c(OC)c4)nn32)CC1 (stereo not drawn)
II. C=CC(=O)N1CCC(C2CCNc3c(C(N)=O)c(-c4cc(C)c(Br)c(C)c4)nn32)CC1 (stereo not drawn)
Field: lower recorded IC50 (choose I or II ) Mark your answer with the label of the selected entry.
II
(II: 3.3 nM, I: 4.9 nM)

P. C=CC(=O)N1CCC(C2CCNc3c(C(N)=O)c(-c4cc(Cl)c(OC)c(Cl)c4)nn32)CC1 (stereo not drawn)
Q. C=CC(=O)N1CCC(C2CCNc3c(C(N)=O)c(-c4cc(OC)c(C5=CCCCC5)c(OC)c4)nn32)CC1 (stereo not drawn)
Could you kindly indicate whether P or Q has the higher IC50 value? Mark your answer with the label of the selected entry.
P
(P: 20 nM, Q: 11 nM)
